Every entry's value here was drawn from the RNAGym collection of RNA variant scans (doi:10.7554/elife.90254).

B1: OR4K15 (parent)
chain: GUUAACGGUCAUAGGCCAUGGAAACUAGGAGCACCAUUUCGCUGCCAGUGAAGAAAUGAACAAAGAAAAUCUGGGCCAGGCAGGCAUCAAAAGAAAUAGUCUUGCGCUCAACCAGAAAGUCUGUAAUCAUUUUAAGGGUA

# Variants of: B1
# test_summary: self-cleavage, relative activity (ratio to wild type); higher = more cleavage; in vitro, sequencing; the parent is a self-cleaving ribozyme
Give measured self-cleavage for each item. Keep answers brief.
One number for each entry.

Observe how each entry below is paired with its result.
Query: Any idea what self-cleavage was measured for A95G U127C ?
Response: 1.56

Query: Any idea what self-cleavage was measured for U3C C107G ?
Response: 0.09

Query: Any idea what self-cleavage was measured for A66U A94G ?
Response: 1.36

Query: Any idea what self-cleavage was measured for A33U A60G ?
Response: 1.38

Query: Any idea what self-cleavage was measured for U37C G80A ?
Response: 0.21

Record self-cleavage for all entries; do not skip any.
1. A56G C128U
2. U100A U139A
3. A23G G115A
4. A30G A95U
5. G7U C77U
6. A27C A67U
7. U26C U131C
8. U43C U70G

Response:
0.54
1.29
0.05
1.42
1.9
1.29
1.04
1.28
